Origin of the recorded values: PubChem BioAssay (NCI)

Assay: NCI Yeast Anticancer Drug Screen. Data for the mlh1 rad18 strain (AID 175)
Conditions: S. cerevisiae mlh1 rad18 strain growth inhibition; at 50.0 µM; hits give high values
About 79,000 compounds went through this panel and 15% of them were active in at least one assay; those are over-represented in the sample as a whole.
Listed here: items and their measured growth inhibition.
Quantity Measured: growth inhibition (%)

INSERT INTO assay_data (molecule, numeric_result) VALUES
  ('c1ccc(-c2ccc3c(c2)NCCN3)cc1', 21.4),
  ('COc1ccc(-c2nc(-c3cc4ccccc4oc3=O)cs2)cc1', -35.1),
  ('O=C1CSC(c2ccc(Cl)c([N+](=O)[O-])c2)N1c1nncs1 (stereo not drawn)', 25.1),
  ('C/C(CCN(C)C)=N\OC(=O)c1ccccc1', -26.9),
  ('O=c1oc2ccc([N+](=O)[O-])cc2cc1-c1csc(-c2ccccc2)n1', -48.8),
  ('O=C1NC(N2CCCC(CO)C2)=N/C1=C\c1ccc(O)cc1 (stereo not drawn)', -31.6),
  ('O=c1[nH]nc(Cc2ccccc2)n1/N=C\c1ccccc1', -43.2),
  ('C=CCN1COc2c(cc3c4c(cccc24)C(=O)O3)C1', 8.35),
  ('CCc1cc2c(oc3cc(C)ccc32)c(=O)n1C', -8.75),
  ('O=C(OCC1C2CCC(C2)C1c1ccccc1)c1ccc([N+](=O)[O-])cc1 (stereo not drawn)', 10.5),
  ('Oc1ccc2ccccc2c1C(c1cccc2ccccc12)N1CCCCC1 (stereo not drawn)', 53.8),
  ('O=C(C[n+]1cccc(C(=O)Nc2ccc(Cl)cc2)c1)Nc1ccccc1', 0.65),
  ('O=C(/C=C(\C(=O)c1ccccc1)c1ccccc1)c1ccc(Cl)cc1', -24.6),
  ('CCOC(=O)/C(=C\c1ccccc1)c1nc2ccccc2[nH]1', -13.6),
  ('CC(C)(C=O)OC(=O)c1cc([N+](=O)[O-])cc([N+](=O)[O-])c1', 1.6),
  ('Cc1ccc(NC(=O)C2CCN(C)CC2)cc1', 7.85),
  ('COC(=O)C(C)(C)c1ccccc1C(C)(C)C(=O)OC', 3.9),
  ('O=P(CCC(F)(F)C(F)(F)C(F)(F)C(F)(F)C(F)(F)C(F)(F)C(F)(F)F)(N1CC1)N1CC1', 1.95);

* * *

Recorded growth inhibition, one value per entry.
Experiment: NCI Yeast Anticancer Drug Screen. Data for the sgs1 mgt1 strain (AID 161);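 further: 0% = growth of cultures given vehicle only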
Conditions: S. cerevisiae sgs1 mgt1 strain, at 50.0 µM, hits give high values
The panel holds about 79,000 compounds, 15% with a hit somewhere; the sample as a whole holds those more often.
Quantity Measured: growth inhibition (%)

INSERT INTO results (compound, numeric_result) VALUES
  ('CNCCC1CCCCCC1', -1.15),
  ('COCC1OC(OC2(COC)OC(COC)C(OC)C2OC)C(OC)C(OC)C1OC (stereo not given)', -9.2),
  ('COc1ccc(/C(Cl)=C(\C=O)c2cc(OC)c(OC)c(OC)c2)cc1OC', -5),
  ('COc1ccccc1NC(=O)CC(=O)N1N=C(C)C(N=Nc2ccc(S(N)(=O)=O)cc2)C1=O (stereo not given)', -8.2),
  ('OCCSC(SCCO)=C(SCCO)SCCO', -1.55);

* * *

Experiment: NCI Yeast Anticancer Drug Screen. Data for the rad50 strain (AID 155);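 further: 0% = growth of vehicle-only cultures of the same strain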
Details: S. cerevisiae rad50 strain growth inhibition; at 50.0 µM; hits give high values
Compounds without any hit were thinned out: in the full panel of roughly 79,000, 15% have a hit. Where a SMILES comes first, the peptide text is derived from it.
Quantity Measured: growth inhibition (%)

INSERT INTO results (molecule, units_text, numeric_result) VALUES
  ('CCCCOP(=O)(OCCCC)/C(C#N)=C/c1ccco1', '%', -67.7),
  ('Cc1ccc(CCCC(=O)O)cc1C', '%', -21.6),
  ('NCCCCC(NC(=O)C(N)Cc1cnc[nH]1)C(=O)O (stereo not drawn) (H-His-Lys-OH; configuration not given here)', '%', 4.1),
  ('CC(C)CCOC(=O)c1ccccc1Cl', '%', 17.7),
  ('COC(=O)CC1OCC=C2CN3CCC45C6=CC(=O)C(=O)C([N+](=O)[O-])=C6NC4C1C2CC35 (configuration not stated)', '%', 0.8),
  ('NCCNCCCCCCNC(=O)c1cccc2cc3ccccc3nc12', '%', -6.7),
  ('O=C(O)C1Cc2c([nH]c3ccccc23)C(CCCCO)N1 (configuration not stated)', '%', -31.6),
  ('c1ccc(-c2nc3ccccc3nc2-c2ccc(Cc3ccc(-c4nc5ccccc5nc4-c4ccccc4)cc3)cc2)cc1', '%', 39.5),
  ('Cc1cc(=O)[nH]c2c1CCCC2', '%', -13.7),
  ('CCCCCCCCS(=O)(=O)NC', '%', 0.95),
  ('Cc1cc(N=Cc2c(CO)cnc(C)c2O)c(N=Cc2c(CO)cnc(C)c2O)cc1C.[Zn]', '%', 5.9),
  ('CC1(C)c2ccccc2-c2nc3ccccc3nc2C1O (configuration not stated)', '%', 4.65),
  ('O=C(COc1ccc(Cl)cc1)OCCCl', '%', 10),
  ('NC(=O)c1ncn(C2CCC(CP(=O)(O)O)C2)c1N (configuration not stated)', '%', -7.45),
  ('O=C(c1ccccc1)N1OCCCc2ccccc21', '%', 17.5),
  ('Nc1ccc(S(=O)(=O)S(=O)(=O)c2ccc(N)cc2)cc1', '%', -0.1),
  ('O=[N+]([O-])c1ccc(Br)cc1', '%', -6.5);

* * *

Reported growth inhibition values are given for each entry in this list.
Assay: NCI Yeast Anticancer Drug Screen. Data for the rad50 strain (AID 155);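 further: 0% = growth of vehicle-only cultures of the same strain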
Conditions: S. cerevisiae rad50 strain growth inhibition; at 50.0 µM; hits give high values
Compounds without any hit were thinned out: in the full panel of roughly 79,000, 15% have a hit.
Quantity Measured: growth inhibition (%)

INSERT INTO measurements (compound, quantity_measured, units_text, numeric_result) VALUES
  ('CCOC(=O)Nc1cc2c(c(N)n1)N=C(CN(C)c1ccccc1)CN2', 'growth inhibition', '%', 22.9),
  ('Cc1cccc(C2=N/C(=C\c3c(O)ccc4ccccc34)C2=O)c1', 'growth inhibition', '%', 6.55),
  ('Cc1ccc(C(=O)c2ccc(O)cc2)cc1', 'growth inhibition', '%', -25.4),
  ('COc1cc(N=C2C=CC(=O)C=C2)c2ncccc2c1', 'growth inhibition', '%', 2.95),
  ('CCOC(=O)CC(c1ccc2c(c1)OCO2)c1cc(OC)c(OC)c(OC)c1 (stereo unspecified)', 'growth inhibition', '%', -7.65),
  ('CC(C)(C)OC(=O)NC1CCCCC1NC(=O)C(=O)NC1CCCCC1NC(=O)OC(C)(C)C (stereo unspecified)', 'growth inhibition', '%', -17.1),
  ('O=C(O)CCCc1ccccc1[N+](=O)[O-]', 'growth inhibition', '%', -16.7),
  ('CO[C@H]1C[C@H]2CC[C@@]1(C)C2(C)C', 'growth inhibition', '%', 8.85),
  ('CC(=O)Oc1ccc(C(=O)c2ccc(OC(C)=O)cc2)cc1', 'growth inhibition', '%', -7.5),
  ('O=C(NO)/C(CC(=O)c1ccccc1O)=N\O', 'growth inhibition', '%', -5.4),
  ('CCc1ccc(CC(=S)N2CCOCC2)cc1', 'growth inhibition', '%', 4.2),
  ('Cc1cc2nc(-c3ccccn3)c(-c3ccccn3)nc2cc1C', 'growth inhibition', '%', 2.05),
  ('O=C(c1ccccc1)C(Br)C(Br)c1ccc([N+](=O)[O-])cc1 (stereo unspecified)', 'growth inhibition', '%', 14.7),
  ('CCCCCCCCCCCCN(CC(O)C(O)C(OC1OC(CO)C(O)C(O)C1O)C(O)CO)C(=O)CCCCCCCCCCC (stereo unspecified)', 'growth inhibition', '%', -2.7),
  ('Cc1ccc(Cc2ccccc2C(=O)O)cc1', 'growth inhibition', '%', -5.95),
  ('CCN(C(=O)NC(C)(C)C)c1cccc(C)c1', 'growth inhibition', '%', 3.15),
  ('S=c1nc[nH]c2c1cnn2-c1ccccc1', 'growth inhibition', '%', 5.6),
  ('CCCCn1c(=O)c2c(ncn2C)n(C)c1=O', 'growth inhibition', '%', 16.8),
  ('C[n+]1cccc(C(=O)c2ccccc2)c1', 'growth inhibition', '%', 6.4),
  ('O=C(O)c1cc2c(c(C(=O)O)c1O)CCCC2', 'growth inhibition', '%', 11.3),
  ('O=C(O)/C=C(/CC(=O)O)c1ccc(O)cc1', 'growth inhibition', '%', -14.9);

* * *

Assay: NCI Yeast Anticancer Drug Screen. Data for the mlh1 rad18 strain (AID 175)
Details: S. cerevisiae mlh1 rad18 strain growth inhibition; at 50.0 µM; hits give high values
Compounds without any hit were thinned out: in the full panel of roughly 79,000, 15% have a hit.
# growth inhibition values compiled below
Quantity Measured: growth inhibition (%)

INSERT INTO results (molecule, numeric_result) VALUES
  ('OCc1ccc(-c2ccccc2)cc1', 28.8),
  ('C=CCOC(=O)CCCCC(=O)OCC=C', 0.1),
  ('O=C(COc1cc(Cl)c(Cl)cc1Cl)Nc1ccc(N=Nc2ccccc2)cc1', -7.95),
  ('NC=O', -11.7),
  ('CC(C)CCOc1ccc(CCO)cc1', -24.8),
  ('O=C(O)[C@H](CSSC[C@@H](C(=O)O)N1C(=O)c2ccccc2C1=O)N1C(=O)c2ccccc2C1=O', -4.4),
  ('CCOC(=O)C1C(C)=CC(=O)CC1C (stereo not drawn)', 4.45),
  ('CC(=O)OC1CN(c2ccc(Br)cc2)CC(OC(C)=O)CN(c2ccc(Br)cc2)C1 (stereo not drawn)', -13.3),
  ('CON1C(=O)c2ccccc2C1=O', -9.3),
  ('CNNC(=NS(=O)(=O)c1cc(C#N)c(NNC)cc1S)NNC', 12.3),
  ('CC(=O)OC(C(=O)O)C(OC(C)=O)C(OC(C)=O)C(=O)O (stereo not drawn)', 8.4),
  ('C[n+]1cccc2cc([N+](=O)[O-])ccc21', -13.3),
  ('CN(C)c1ccc(/C=C(\C#N)C(=O)c2ccccc2)cc1', 22.9),
  ('O=C1c2cccc3cc([N+](=O)[O-])cc(c23)C(=O)N1Cc1cccnc1', 10.8),
  ('CSC1C(=O)Nc2ccccc21 (stereo not drawn)', -3),
  ('Nc1ncc([N+](=O)[O-])c(N)n1', 15.9),
  ('Nc1ccc(Sc2nnc(N)s2)cc1', -47.5),
  ('Cc1nc2nc[nH]n2c1N=Nc1ccccc1', 9.5),
  ('COC(=O)C1OC1c1ccncc1 (stereo not drawn)', 5.5),
  ('O=C=Nc1ccc(Cc2ccc(N=C=O)cc2)cc1 (tested in a mixture with another compound)', 14.3),
  ('O=C1OCC2C(=O)N3Cc4cc5ccccc5nc4C3CC12 (stereo not drawn)', 9.55),
  ('CC(=O)C1CCC(CCCC(C)C)CC1 (stereo not drawn)', 6.2),
  ('COC(=O)c1nc(N)[nH]c(=O)c1CCCCCc1c(C(=O)OC)nc(N)[nH]c1=O', -17.6),
  ('C/C(=N\NS(=O)(=O)c1ccc(N)cc1)c1ccc(C)cc1C', -16.5),
  ('CCOC(=O)c1cnc(N)nc1N', 24.1),
  ('C[N+](C)(N)CCC[N+](C)(C)N', -3.4),
  ('CCCCON1C[C@@H](O)C(O)[C@@H](O)C1 (stereo partly drawn)', -4.35),
  ('COC(=O)c1sc(C(=O)OC)c2c1CS(=O)C2', 42.2);
